Examples of molecules with documented MIC follow.
# Tested on: Mycobacterium tuberculosis
# procedure text: Antitubercular activity against Mycobacterium tuberculosis H37Rv ATCC 27294 after 7 days by resazurin dye based assay
# Assay type: functional
# condition: H37Rv ATCC 27294, 168 h

Below, each entry is followed by its recorded MIC result.
1. CC1CCCC(NC(=O)CSc2nc3ccccc3[nH]2)C1 (stereo not drawn); > 33 µM
2. O=C(CSc1nc2ccccc2[nH]1)NCc1ccccc1; > 33.6 µM

Kindly consider the entry below.
Enter reported MIC observed with Mycobacterium tuberculosis for "CN(C(=O)CSc1nc2ccccc2c(=O)[nH]1)C1CCCCC1"
> 75.4 µM
